STUDY_SYSTEM: human muscarinic M4 receptor (Homo sapiens, UniProt P08173)
Construct: expressed in transfected cells
Sequence (P08173 whole entry): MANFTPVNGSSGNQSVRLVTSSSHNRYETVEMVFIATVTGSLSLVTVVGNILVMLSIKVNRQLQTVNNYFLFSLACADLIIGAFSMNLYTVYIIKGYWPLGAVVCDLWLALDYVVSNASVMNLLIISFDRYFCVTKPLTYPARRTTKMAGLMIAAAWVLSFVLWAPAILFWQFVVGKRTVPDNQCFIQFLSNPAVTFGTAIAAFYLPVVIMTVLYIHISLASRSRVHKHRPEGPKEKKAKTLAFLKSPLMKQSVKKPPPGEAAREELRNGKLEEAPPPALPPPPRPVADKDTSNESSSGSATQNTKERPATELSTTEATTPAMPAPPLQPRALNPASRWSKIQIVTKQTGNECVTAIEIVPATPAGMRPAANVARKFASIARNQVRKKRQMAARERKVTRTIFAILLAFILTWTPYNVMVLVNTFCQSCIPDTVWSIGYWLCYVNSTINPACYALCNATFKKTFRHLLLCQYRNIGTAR
PROTOCOL_DESCRIPTION: Alphascreen Surefire phospho-ERK1/2 functional assay, M4
Format: cell-based
ASSAY_SETUP: CHO cells stably expressing human M4; phospho-ERK1/2; * = variable results; read-out: pEC50 M4 (converted)
METRIC: EC50 (µM)

[a] COC(=O)N1CCC2(CC(N3CCC(c4nn(C)cc4C)CC3)C2)C1 (single isomer, unassigned) [1-55 Isomer 2]
[b] CCOC(=O)N1CCC2(CC(N3CCC(c4cc(C)c[nH]c4=O)CC3)C2)C1 (single isomer, unassigned) [3-15 Isomer 2]
[c] CCOC(=O)N1CCC2(CC(N3CCC([C@@H]4CCCN4C(=O)NC4CCC4)CC3)C2)C1 (single isomer, unassigned) [2-30 Isomer 2]
[in] Ascending sort, EC50. To answer, write out the labels according to the requested order.
[out] c, b, a

====

STUDY_SYSTEM: human muscarinic M3 receptor (Homo sapiens, UniProt P20309)
Sequence (P20309 whole entry): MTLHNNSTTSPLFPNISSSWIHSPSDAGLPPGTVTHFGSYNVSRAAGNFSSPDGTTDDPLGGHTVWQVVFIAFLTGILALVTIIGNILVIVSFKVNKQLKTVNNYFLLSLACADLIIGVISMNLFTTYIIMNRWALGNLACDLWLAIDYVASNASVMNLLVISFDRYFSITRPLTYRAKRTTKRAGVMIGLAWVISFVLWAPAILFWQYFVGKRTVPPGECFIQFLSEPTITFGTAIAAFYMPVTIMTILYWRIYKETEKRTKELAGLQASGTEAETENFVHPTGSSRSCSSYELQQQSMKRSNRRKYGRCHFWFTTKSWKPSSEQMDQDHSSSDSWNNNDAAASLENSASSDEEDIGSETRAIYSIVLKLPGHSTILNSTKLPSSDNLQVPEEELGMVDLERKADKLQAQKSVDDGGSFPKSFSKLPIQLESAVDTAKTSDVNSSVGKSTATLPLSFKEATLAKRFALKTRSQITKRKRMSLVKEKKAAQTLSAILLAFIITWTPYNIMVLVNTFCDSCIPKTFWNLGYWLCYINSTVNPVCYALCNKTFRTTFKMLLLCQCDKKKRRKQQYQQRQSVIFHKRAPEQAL
PROTOCOL_DESCRIPTION: Alphascreen Surefire phospho-ERK1/2 functional assay, M3
ASSAY_SETUP: CHO, read-out: % Emax cf. ACh, M3, CHO cells stably expressing human M3; relative to ACh
METRIC: Emax (%)

[
  {
    "COMPOUND": "CCOC(=O)N1CCC2(CC(N3CCC(N4CC(F)(F)C[C@@H]4C(=O)NOC)CC3)C2)C1 (single isomer, unassigned) [2-91 Isomer 2]",
    "Emax / %": 10
  }
]

[I] CCOC(=O)N1CCC2(CC(N3CCC([C@@H]4CCCN4C(=O)NC4CCC4)CC3)C2)C1 (single isomer, unassigned) [2-30 Isomer 2]
[II] COC(=O)N1CCC2(CC(N3CCC(c4nccs4)CC3)C2)C1 (single isomer, unassigned) [1-24 Isomer 2]
[III] CCOC(=O)N1CCC2(CC(N3CCC([C@@H]4CCCN4C(=O)N(C)C4COC4)CC3)C2)C1 (single isomer, unassigned) [2-57 Isomer 2]
[in] Put the items in order so that reported Emax rises from first to last. To answer, write out the labels according to the requested order.
[out] II, III, I

[A] CCOC(=O)N1CCC2(CC(N3CCC([C@@H]4CCCN4CC(=O)OC)CC3)C2)C1 (single isomer, unassigned) [2-72 Isomer 2]
[B] CCOC(=O)N1CCC2(CC(N3CCC(N4CCC(F)(F)C4)CC3)C2)C1 (single isomer, unassigned) [2-100 Isomer 2]
[in] For the two items A and B , which reports the higher Emax value? Field: selected label. Fill in the label of the entry you choose.
[out] A
(A: 10%, B: 5%)

====

STUDY_SYSTEM: UniProt P11229
Sequence (P11229 whole entry): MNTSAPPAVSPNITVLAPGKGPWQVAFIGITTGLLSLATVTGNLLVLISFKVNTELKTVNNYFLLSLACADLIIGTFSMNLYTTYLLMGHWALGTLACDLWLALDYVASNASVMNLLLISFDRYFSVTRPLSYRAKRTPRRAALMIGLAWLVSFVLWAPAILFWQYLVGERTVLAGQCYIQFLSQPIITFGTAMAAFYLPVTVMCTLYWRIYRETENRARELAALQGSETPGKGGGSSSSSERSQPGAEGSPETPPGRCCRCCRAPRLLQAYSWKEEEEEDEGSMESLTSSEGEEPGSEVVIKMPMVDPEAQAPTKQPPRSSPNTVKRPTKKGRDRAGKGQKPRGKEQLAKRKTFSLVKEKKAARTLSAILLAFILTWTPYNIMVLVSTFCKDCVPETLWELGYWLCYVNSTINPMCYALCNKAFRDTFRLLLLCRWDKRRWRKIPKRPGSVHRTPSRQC
PROTOCOL_DESCRIPTION: Alphascreen Surefire phospho-ERK1/2 functional assay, M1
Type: cell-based
ASSAY_SETUP: CHO, read-out: % Emax cf. ACh, M1, CHO cells stably expressing human M1; relative to ACh
METRIC: Emax (%)

[
  {
    "MOLECULE": "CCOC(=O)N1CCC2(CC(N3CCC([C@@H]4CCCN4C(=O)OC4CCC4)CC3)C2)C1 (single isomer, unassigned) [2-43 Isomer 2]",
    "U": "%",
    "Emax": 19
  }
]

[P] COc1ncccc1C1CCN(C2CC3(CCN(C(=O)OCCF)C3)C2)CC1 (single isomer, unassigned) [3-5 Isomer 2]
[Q] CCOC(=O)N1CCC2(CC(N3CCC([C@@H]4CCCN4C(=O)NCC(F)F)CC3)C2)C1 (single isomer, unassigned) [2-45 Isomer 2]
[R] CCOC(=O)N1CCC2(CC(N3CCC([C@@H]4CCCN4C(=O)COC)CC3)C2)C1 (single isomer, unassigned) [2-46 Isomer 2]
[in] Put the items in order so that reported Emax rises from first to last. To answer, write out the labels according to the requested order.
[out] P, R, Q

[a] CCOC(=O)N1CCC2(CC(N3CCC(c4cnc(OC)cc4C)CC3)C2)C1 (single isomer, unassigned) [3-6 Isomer 2]
[b] CCC(=O)N1CCCC1C1CCN(C2CC3(CCN(C(=O)OC)C3)C2)CC1 (single isomer, unassigned) [2-5 Isomer 2]
[c] CCOC(=O)N1CCC2(CC(N3CCC(N4C(=O)OC[C@@H]4C(C)C)CC3)C2)C1 (single isomer, unassigned) [2-123 Isomer 2]
[in] Put the items in order so that reported Emax rises from first to last. To answer, write out the labels according to the requested order.
[out] b, a, c
(b: 34%, a: 74%, c: 114%)

[a] COC(=O)N1CCC2(CC(N3CCC(c4nc(Cl)c(Cl)n4C)CC3)C2)C1 (single isomer, unassigned) [1-16 Isomer 2]
[b] CCNC(=O)N1CCCC1C1CCN(C2CC3(CCN(C(=O)OCC)C3)C2)CC1 (single isomer, unassigned) [2-19 Isomer 2]
[in] Hi! Which is lower in terms of Emax, the first one a or the second one b ? Field: selected label. Fill in the label of the entry you choose.
[out] b
